target: hPPARγ (LBD) (Homo sapiens, UniProt P37231); construct: A receptor expression plasmid (pSG5-GAL4-hPPARα or γ or δ (LBD)); GAL4 (fusion partner); expressed in transfected cells; host or cells: CV-1 cells (ATCC); assay: PPAR activating function, GAL4-hPPARγ (LBD) luciferase reporter transfected into CV-1 cells; assay type: cell-based; settings: 10^−7 M of the test compound, control Rosiglitazone 10^−5 M = 100%
Sequence (P37231 238-503 limits assumed): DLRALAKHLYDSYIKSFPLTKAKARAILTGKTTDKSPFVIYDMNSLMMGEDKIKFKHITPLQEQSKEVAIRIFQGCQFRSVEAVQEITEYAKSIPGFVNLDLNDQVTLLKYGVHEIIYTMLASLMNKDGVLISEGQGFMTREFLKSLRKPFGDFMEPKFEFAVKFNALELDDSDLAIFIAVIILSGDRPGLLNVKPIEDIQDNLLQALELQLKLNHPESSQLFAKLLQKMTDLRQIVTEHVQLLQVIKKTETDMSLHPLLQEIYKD
outcome measure: PPAR activity PPARγ (relative value, control = 100%)

[
  {
    "molecule": "Cc1cc(C(=O)C=Cc2sc(-c3ccc(C(F)(F)F)cc3)nc2C(C)C)ccc1C=CC(=O)O [Example 4]",
    "value reported": "Inactive"
  },
  {
    "molecule": "Cc1cc(C(=O)CCc2sc(-c3ccc(C(F)(F)F)cc3)nc2C(C)C)ccc1CCC(=O)O [Example 5]",
    "value reported": "Inactive"
  },
  {
    "molecule": "Cc1cc(C(=O)CCc2sc(-c3ccc(C(F)(F)F)cc3)cc2C(C)C)ccc1CCC(=O)O [Example 2]",
    "value reported": "Inactive"
  }
]
